Test system: MCF7 (human breast adenocarcinoma cells)
assayNotes: MTT viability assay, 72 h
Type: cell-based
conditionLabel: MCF7, 72 h, mean ± SD
quantityName: IC50 (µM)
Could you give me the number in µM? Just the number is fine.

The value of IC50 measured for the molecule COc1cc(N/C(C)=C2/C(=O)Oc3cc(OC(C)=O)ccc3C2=O)ccc1O turned out to be 45.6
